- studySystem: hBest1 (Homo sapiens, UniProt O76090)
- testMethodNotes: whole-cell patch clamp of iPSC-RPE, current density at +[…] mV
- details: intracellular ATP; 0.6 μM free Ca2+; pH 7.4; activator; direct binding to hBest1 not tested
quantity: EC50 (µM)
Expressed in µM, but write only the number.

Entry Nc1ncnc2c1ncn2[C@@H]1O[C@H](COP(=O)(O)OP(=O)(O)OP(=O)(O)O)[C@@H](O)[C@H]1O [ATP] , EC50 reported as 677

----------
quantity: Kd (µM)
Report the figure in µM without appending any unit label.

Record "Nc1ncnc2c1ncn2[C@@H]1O[C@H](COP(=O)(O)OP(=O)(O)O)[C@@H](O)[C@H]1O" has bBest2 (Bos taurus) Kd equal to 3000

Test item "Nc1ncnc2c1ncn2[C@@H]1O[C@H](COP(=O)(O)OP(=O)(O)OP(=O)(O)O)[C@@H](O)[C@H]1O" ; bBest2 (Bos taurus); reported Kd was 560

----------
- studySystem: (UniProt W9BH30, L177T)
- testMethodNotes: biochemical
quantity: pKd
# pKd = -log10(concentration in molar units)

For record Nc1ncnc2c1ncn2[C@@H]1O[C@H](CO[P@](=O)(O)O[P@](=O)(O)O[P@@](=O)(O)S)[C@@H](O)[C@H]1O [ATPγS] the listed pKd is 3.83
